// provenance: PubChem BioAssay (Tox21)

- studySystem: Glucocorticoid receptor (Homo sapiens)
- measurementDescription: qHTS assay to identify small molecule antagonists of the glucocorticoid receptor (GR) signaling pathway (AID 720692)
- conditionsUsed: GR-bla HeLa, beta-lactamase FRET ratio, dexamethasone-stimulated, 18 h; series mostly up to 58.5 µM
- Text: U.S. Tox21 Program National Center for Advancing Translational Sciences [NCATS] NIH Chemical Genomics Center [NCGC] U.S. Environmental Protection Agency [EPA] National Institutes of Environmental Health Sciences [NIEHS] National Toxicology Program [NTP] U.S. Food and Drug Administration [FDA] […] The activation of the reporter gene under culture conditions can be detected by fluorescence intensity. […]
Results filed as inconclusive are left out. The source made the active and inactive calls. Calls follow the shape of the dose curve; as a rule, active = well fitted inhibition curve with a large enough effect in the signal ratio in the repeat runs (not every such curve was filed as active); inconclusive = weak or mixed curves, or effect the other way; inactive = no such curve, though single readings can be large or run the other way; the % refers to the signal ratio.
Your response should consist of one outcome taken from active, inactive

# count of solved cases: 5
| molecule | groupLabel |
| --- | --- |
| CNCC(O)c1ccc(OC(=O)C(C)(C)C)c(OC(=O)C(C)(C)C)c1 (stereo not drawn) | inactive |
| O=C(Nc1ccc(O)cc1)c1ccccc1O | inactive |
| CCOC(=O)[C@H](CCc1ccccc1)N[C@@H](C)C(=O)N1CC2(C[C@H]1C(=O)O)SCCS2 | inactive |
| NC(=O)OC[C@@H]1[C@H](NC(=O)/C(=N\OCC(=O)O)c2csc(N)n2)C(=O)N1S(=O)(=O)O | inactive |
| CCOC(=O)c1c[nH]c2cc(OCC(C)C)c(OCC(C)C)cc2c1=O | inactive |

What outcome does the record of this test show for CC(=O)Nc1c(I)c(C(=O)O)c(I)c(N(C)C(C)=O)c1I ?
inactive

What outcome does the record of this test show for Cc1ccc(/C(=C\CN2CCCC2)c2cccc(/C=C/C(=O)O)n2)cc1 ?
inactive

What outcome does the record of this test show for CCOC(=O)[C@H](CCc1ccccc1)N[C@H]1CCCN2CCC[C@@H](C(=O)O)N2C1=O ?
inactive

What outcome does the record of this test show for CN1CCCC(CN2c3ccccc3Sc3ccccc32)C1 (stereo not drawn) ?
inactive

What outcome does the record of this test show for NNc1nnc(Cc2ccncc2)c2ccccc12 ?
inactive

What outcome does the record of this test show for CO[C@@H]1[C@@H](O[C@@H]2O[C@H](C)[C@@H](O[C@H]3C[C@@](C)(O)[C@@H](O)[C@H](C)O3)[C@H](N(C)C)[C@H]2O)[C@@H](CC=O)C[C@@H](C)[C@@H](O[C@@H]2CC[C@H](N(C)C)[C@@H](C)O2)/C=C/C=C/C[C@@H](C)OC(=O)C[C@H]1O ?
inactive

What outcome does the record of this test show for CC1=C[C@H](O)CC(C)(C)[C@H]1/C=C/C(C)=C/C=C/C(C)=C/C=C/C=C(C)/C=C/C=C(C)/C=C/C1=C(C)C[C@@H](O)CC1(C)C ?
active

What outcome does the record of this test show for C=CCCCCCCCCC(=O)OC ?
inactive

What outcome does the record of this test show for O=C1O[C@H]2[C@H](O)[C@@H]1OC(O)[C@H]2O (stereo partly drawn) ?
inactive

What outcome does the record of this test show for C[C@@H]1C/C=C/C=C/C=C/C=C/[C@H](O[C@@H]2O[C@H](C)[C@@H](O)[C@H](N)[C@@H]2O)C[C@@H]2O[C@](O)(C[C@@H](O)C[C@H]3O[C@@H]3/C=C/C(=O)O1)C[C@H](O)[C@H]2C(=O)O ?
inactive

What outcome does the record of this test show for NCCCC[C@H](N)C(=O)O ?
inactive

What outcome does the record of this test show for CCC(C)C(C(=O)OCC[N+](C)(CC)CC)c1ccccc1 (stereo not drawn) ?
inactive

What outcome does the record of this test show for C[C@H](O)[C@H](O)[C@H]1CNc2nc(N)[nH]c(=O)c2N1 ?
inactive

====

- measurementDescription: qHTS assay for identifying genotoxic compounds that show differential cytotoxicity against isogenic chicken DT40 cell lines with known DNA damage response pathways - Rad54/Ku70 mutant cell line (AID 743015); also: nearly all actives have a fitted effect of over 60% in size
- conditionsUsed: DT40 Rad54/Ku70 mutant viability, CellTiter-Glo, 40 h; series mostly up to 66.8 µM
Records with an inconclusive call do not appear. The source made the active and inactive calls. Calls follow the shape of the dose curve; as a rule, active = well fitted cell-killing curve with a large enough effect in the repeat runs; inconclusive = weak or mixed curves; inactive = no such curve, though single readings can be large or run the other way.
Your response should consist of one outcome taken from label 1 (active), label 0 (inactive)

# count of solved cases: 4
| compound | groupLabel |
| --- | --- |
| CC1(C)S[C@@H]2[C@H](NC(=O)Cc3ccccc3)C(=O)N2[C@H]1C(=O)O | label 0 |
| CC[C@@]1(O)C[C@H](O[C@H]2C[C@H](N(C)C)[C@H](O[C@H]3C[C@H](O)[C@H](O[C@H]4CCC(=O)[C@H](C)O4)[C@H](C)O3)[C@H](C)O2)c2c(cc3c(c2O)C(=O)c2c(O)cccc2C3=O)[C@H]1C(=O)OC | label 1 |
| C[C@@H](O)[C@H]1C(=O)N2C(C(=O)[O-])=C(SC3Cn4cnc[n+]4C3)[C@H](C)[C@H]12 (stereo partly drawn) | label 0 |
| CCCCC(O)c1ccccc1 (stereo not drawn) | label 0 |

What outcome does the record of this test show for OC[C@H]1O[C@@H](n2cnc3c2NC=NC[C@H]3O)C[C@@H]1O ?
label 0

What outcome does the record of this test show for O=C1NC(=O)[C@H]2[C@@H]1[C@@H]1C=C[C@H]2C1 ?
label 0

What outcome does the record of this test show for CC(C)(C)C(=O)OCOC(=O)[C@@H]1N2C(=O)[C@@H](N=CN3CCCCCC3)[C@H]2SC1(C)C ?
label 0

What outcome does the record of this test show for CC(=O)Nc1c(I)c(C(=O)N[C@H]2C(O)O[C@H](CO)[C@@H](O)[C@@H]2O)c(I)c(N(C)C(C)=O)c1I (stereo partly drawn) ?
label 0

====

- measurementDescription: qHTS assay to identify small molecule antagonists of the estrogen receptor alpha (ER-alpha) signaling pathway using the BG1 cell line - cell viability counter screen (AID 743081);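 also: compound given together with 17beta-estradiol as the ER stimulus; nearly all actives have a fitted effect of over 45% in size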
- conditionsUsed: BG1Luc4E2 viability, CellTiter-Fluor, 22 h; series mostly up to 70.3 µM
Inconclusive results are not listed. Active and inactive are the calls of the source. The call rests on the fitted dose curve; in most records, active means well fitted cell-killing curve with a large enough effect in the repeat runs; inconclusive means weak or mixed curves, or effect the other way; inactive means flat fitted curve, though single readings scatter.
Your response should consist of one outcome taken from active, inactive

# count of solved cases: 7
| compoundStructureString | groupLabel |
| --- | --- |
| O=C(O)CC/C=C\CC[C@@H]1[C@@H](N2CCCCC2)[C@@H](O)C[C@@H]1OCc1ccc(-c2ccccc2)cc1 | inactive |
| CCOC(=O)[C@H](CCc1ccccc1)N[C@@H](C)C(=O)N1CC2(C[C@H]1C(=O)O)SCCS2 | inactive |
| O=C(O)[C@H](CC(=O)N1C[C@H]2CCCC[C@H]2C1)Cc1ccccc1 | inactive |
| C=C1C(=C/C=C2\CCC[C@]3(C)[C@@H]([C@H](C)CCCC(C)(C)O)CC[C@@H]23)C[C@@H](O)C[C@@H]1O | active |
| O=C(Nc1ccc(Br)cc1)c1cc(Br)c(Br)s1 | inactive |
| CCC(=O)OCC(=O)[C@@]1(OC(=O)CC)[C@@H](C)C[C@H]2[C@@H]3CCC4=CC(=O)C=C[C@]4(C)[C@@]3(Cl)[C@@H](O)C[C@@]21C | inactive |
| CCCCCCCCCCCCCCCCCCOP(=O)([O-])OC1CC[N+](C)(C)CC1 | inactive |

What outcome does the record of this test show for C[C@H](/C=C/[C@H](C)C(C)(C)O)[C@H]1CC[C@H]2/C(=C/C=C3C[C@@H](O)C[C@H](O)C3)CCC[C@]12C ?
inactive

====

- measurementDescription: qHTS assay to identify small molecule antagonists of the thyroid receptor (TR) signaling pathway (AID 743065); also: nearly all actives have a fitted effect of over 55% in size
- conditionsUsed: GH3.TRE-Luc, T3-stimulated luciferase inhibition, 23.5 h; series mostly up to 70.3 µM
Inconclusive results are not listed. Calls of active or inactive are those of the source. Calls come from the whole dose curve; as a rule, active = well fitted inhibition curve with a large enough effect in the repeat runs; inconclusive = weak or mixed curves; inactive = no such curve, though single readings can be large or run the other way.
Your response should consist of one outcome taken from active, inactive

# count of solved cases: 3
| compound | groupLabel |
| --- | --- |
| CN(CCO)CC(O)Cn1cnc2c1c(=O)n(C)c(=O)n2C (stereo not drawn) (tested in a mixture with another compound) | inactive |
| CC1(C)S[C@@H]2[C@H](NC(=O)[C@H](N)c3ccccc3)C(=O)N2[C@H]1C(=O)OCOC(=O)[C@@H]1N2C(=O)C[C@H]2S(=O)(=O)C1(C)C | inactive |
| CC(C)(C)C1(O)CCN2CC3c4ccccc4CCc4cccc(c43)C2C1 (stereo not drawn) | active |

What outcome does the record of this test show for CCc1ccc2c(c1)N(CC(C)CN(C)C)c1ccccc1S2 (stereo not drawn) ?
active

What outcome does the record of this test show for O=C(c1cc2ccccc2o1)N1CCN(Cc2ccccc2)CC1 ?
inactive

What outcome does the record of this test show for C#C[C@]1(OC(C)=O)CC[C@H]2[C@@H]3CCC4=CC(=O)CC[C@@H]4[C@H]3CC[C@@]21C ?
active

What outcome does the record of this test show for CC(=O)O[C@H]1C[C@@H]2CC[C@@H]3[C@H](CC[C@@]4(C)[C@H]3C[C@H](N3CC[N+](C)(C)CC3)[C@@H]4OC(C)=O)[C@@]2(C)C[C@@H]1N1CC[N+](C)(C)CC1 ?
inactive

What outcome does the record of this test show for Nc1ncnc2c1ncn2CCOCP(=O)(O)O ?
inactive
